- ASSAY TARGET: NGF (nerve growth factor) (Homo sapiens, UniProt P01138 P01138:122-241)
- Sequence (P01138 122-241, one chain of several): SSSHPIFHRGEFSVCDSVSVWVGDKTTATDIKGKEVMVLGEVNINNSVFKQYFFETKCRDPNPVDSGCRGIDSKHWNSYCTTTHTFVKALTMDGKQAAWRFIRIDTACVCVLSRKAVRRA
- TEST METHOD NOTES: cell_activity; neurite; TF-1 0.018
- STUDY CONDITIONS: tags: R&D Systems; chain copies: 2
VALUE TYPE: IC50

Problem: Form field: reported IC50 of GGGUCCUGGCCAAGAGUUUCCGUCUCGUGGUCUGUUACCC (ssRNA, 2'-OMe G (G8,G34 2'-OH), dA, 2'-F C/U; 5',3' idT) [SEQ ID NO: 78(1)]
Result: 0.12 nM
